Test system: Vesicular stomatitis virus
Experiment: Antiviral activity against VSV pseudotyped virus infected in A549 cells assessed as inhibition of viral entry incubated for 48 hrs by measuring luciferase activity by Neolite reporter gene assay
Format: functional, organism-based
Details: A549, 48 h
As shown below, each of these compounds has a reported IC50 value.

{"query-smiles": "Brc1ccc(-c2nc3ncccn3c2NC2CCCCC2)cc1", "bound-type": "=", "IC50 [µM]": 42}
{"query-smiles": "COc1ccc(-c2nc3ncccn3c2NC2CCCCC2)cc1", "bound-type": "=", "IC50 [µM]": 100}
{"query-smiles": "Cc1cc(Br)ccc1-c1nc2ncccn2c1Nc1ccccc1", "bound-type": "=", "IC50 [µM]": 100}
{"query-smiles": "Clc1ccc(-c2nc3ncccn3c2NC2CCCCC2)cc1", "bound-type": "=", "IC50 [µM]": 36}
{"query-smiles": "COCCCCOc1ccc(-c2nc3ncccn3c2NC2CCCCC2)cc1", "bound-type": "=", "IC50 [µM]": 40}
{"query-smiles": "c1ccc(-c2nc3ncccn3c2NC2CCCCC2)cc1", "bound-type": "=", "IC50 [µM]": 74}
{"query-smiles": "Oc1ccc(-c2nc3ncccn3c2NC2CCCCC2)cc1", "bound-type": "=", "IC50 [µM]": 65}
{"query-smiles": "CCCCOc1ccc(-c2nc3ncccn3c2NC2CCCCC2)cc1", "bound-type": "=", "IC50 [µM]": 36}
{"query-smiles": "COc1ccccc1-c1nc2ncccn2c1NC1CCCCC1", "bound-type": ">", "IC50 [µM]": 100}
{"query-smiles": "Brc1ccc(-c2nc3ncccn3c2NC2CCCCC2)c(CN2CCOCC2)c1", "bound-type": "=", "IC50 [µM]": 60}
{"query-smiles": "Fc1ccc(-c2nc3ncccn3c2NC2CCCCC2)cc1", "bound-type": "=", "IC50 [µM]": 53}
{"query-smiles": "FC(F)(F)c1cc(Br)ccc1-c1nc2ncccn2c1NC1CCCCC1", "bound-type": "=", "IC50 [µM]": 24}
{"query-smiles": "Cc1cc(Br)ccc1-c1nc2ncccn2c1NC1CCCCC1", "bound-type": "=", "IC50 [µM]": 39}
